The values you see were collected from patent US20190315823A1.

System: methicillin resistant Staphylococcus aureus (MRSA) biofilm
Settings: approximate peptide concentration […] (around 3 μg/ml); compared to untreated samples
Ends that are not written are not given here.
Item-by-item account of % Biofilm inhibition
Property Measured: % Biofilm inhibition (%)

>>> recorded_measurement("HH2-Q8: single substituted HH2 peptide (VQLRIRVQVIRA-NH2)")
65
>>> recorded_measurement("1018-I6: single substituted 1018 peptide (VRLIVIVRIWRR-NH2) [Peptide 1018-I6]")
65
>>> recorded_measurement("1002-V9: single substituted 1002 peptide (VQRWLIVWVIRK-NH2) [Peptide 1002-V9]")
47
>>> recorded_measurement("HH2-W12: single substituted HH2 peptide (VQLRIRVAVIRW-NH2)")
58
